All values here come from patent EP4772193A1.

target-or-system: T1, recombinant mouse soluble gpNMB (recombinant mouse gpNMB-FLAG-His) (mouse, UniProt Q99P91 23-502)
T1 sequence: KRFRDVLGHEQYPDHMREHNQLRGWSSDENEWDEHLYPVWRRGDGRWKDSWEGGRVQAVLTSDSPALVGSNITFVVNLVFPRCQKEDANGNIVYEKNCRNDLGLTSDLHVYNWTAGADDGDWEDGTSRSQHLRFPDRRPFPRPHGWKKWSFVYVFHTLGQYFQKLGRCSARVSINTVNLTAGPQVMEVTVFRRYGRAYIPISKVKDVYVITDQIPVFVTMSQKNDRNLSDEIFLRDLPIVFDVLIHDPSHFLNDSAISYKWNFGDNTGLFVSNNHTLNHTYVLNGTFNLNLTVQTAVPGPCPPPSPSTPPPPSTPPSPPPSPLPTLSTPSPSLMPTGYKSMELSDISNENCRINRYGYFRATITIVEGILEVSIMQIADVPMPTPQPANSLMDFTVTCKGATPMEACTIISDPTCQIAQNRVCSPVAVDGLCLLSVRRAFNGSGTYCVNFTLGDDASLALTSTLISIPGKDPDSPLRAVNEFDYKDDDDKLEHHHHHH
protocol-details: SPR, antibody 100 nM over captured gpNMB-FLAG-His, 25C
experimental-readout: pKd
Scale note: pKd = -log10(concentration in M).

| binder | pKd |
| --- | --- |
| GPN18-2 (antibody, V domains shown, monoclonal with mouse IgG constant regions) VH: QVTLKESGPGILQPSQTLSLTCSFSGFSLSTSVMGVGWIRQPSGKGLEWLADIWWDDDKDYNPSLKSRLTISKDTSKNQVFLKIASVDTADTATYYCARTYYSNYEYYGMDYWGQGTSVTVSS VL: DVLMTQTPLSLPVSLGDQASISCRSSQTIILSNGNTYLEWYLQKPGQSPKLLIYKVSNRFSGVPDRFSGSGSGTDFTLKISRVEAEDLGVYYCFQGSHVPFTFGSGTKLEIK | 8.48 |
| GPN15-3 (antibody, V domains shown, monoclonal with mouse IgG constant regions) VH: QVTLKESGPGILQPSQTLSLTCSFSGFSLTTSGMGVGWIRQPSGKGLEWLADMWWDDDKNYNPSLKSRLTISKDNSKKQVFLKIASVDTADTATYYCARRVYSSWFAYWGQGTLVTVSA VL: DIVMTQSQKFMSTSVGDRVSVTCKASQNVGANVAWYQQKPGQSPKTLIYSASYRYGGVPDRFTGSGSGTDFTFTITNVQSEDLAEYFCQQYNNYPLTFGAGTKLDLK | 8.54 |

Field: next binder
Input line: Look up and state reported pKd for GPN06-1 (antibody, V domains shown, monoclonal with mouse IgG constant regions) VH: QVQLQQPGAEIVRPGASVKLSCKASGYTFTDNWMGWVKQRPGQGLEWIGAIDPSDSFTNYNQNFKGKATLTVDTSSSTAYMQLSSLTSEDSAVYFCTRSGYYGSPKLGGDYWGQGTTLTVSS VL: QIVLTQSPAIMSASLGEEITLTCSASSSISYMHWYQQKSGTSPKLLIYSTSNLASGVPSRFSGSGSGTFYSLTISSVEAEDAADYYCHQWNSYPCTFGGGTKLEIK
Output line: 7.92
